Target: Peroxisome proliferator-activated receptor gamma (Homo sapiens, UniProt P37231)
Sequence (P37231 whole entry): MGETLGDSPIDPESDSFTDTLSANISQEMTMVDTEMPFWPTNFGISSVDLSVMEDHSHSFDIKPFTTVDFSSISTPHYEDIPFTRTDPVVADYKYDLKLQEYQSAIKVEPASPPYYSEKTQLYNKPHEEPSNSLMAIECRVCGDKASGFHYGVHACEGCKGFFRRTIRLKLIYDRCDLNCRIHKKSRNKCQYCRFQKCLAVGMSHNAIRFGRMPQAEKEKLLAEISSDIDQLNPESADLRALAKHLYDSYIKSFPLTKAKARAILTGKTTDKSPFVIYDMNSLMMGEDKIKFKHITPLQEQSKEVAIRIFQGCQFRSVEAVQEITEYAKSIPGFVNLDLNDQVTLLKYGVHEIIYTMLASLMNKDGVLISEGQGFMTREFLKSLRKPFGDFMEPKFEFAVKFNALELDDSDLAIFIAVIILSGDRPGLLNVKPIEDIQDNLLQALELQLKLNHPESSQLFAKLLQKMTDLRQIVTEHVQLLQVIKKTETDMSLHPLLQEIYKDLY
Experiment: Agonist activity at PPARgamma (unknown origin) assessed as transcriptional activation
readout kind: EC50
Note: a bare number is incomplete; add the unit.

**Q:** Entry CSc1ccc(C(=O)/C=C/c2cc(C)c(OC(C)(C)C(=O)O)c(C)c2)cc1 : reported EC50 = ?
**A:** 175 nM

---

Target: Peroxisome proliferator-activated receptor alpha (Homo sapiens, UniProt Q07869)
Sequence (Q07869 whole entry): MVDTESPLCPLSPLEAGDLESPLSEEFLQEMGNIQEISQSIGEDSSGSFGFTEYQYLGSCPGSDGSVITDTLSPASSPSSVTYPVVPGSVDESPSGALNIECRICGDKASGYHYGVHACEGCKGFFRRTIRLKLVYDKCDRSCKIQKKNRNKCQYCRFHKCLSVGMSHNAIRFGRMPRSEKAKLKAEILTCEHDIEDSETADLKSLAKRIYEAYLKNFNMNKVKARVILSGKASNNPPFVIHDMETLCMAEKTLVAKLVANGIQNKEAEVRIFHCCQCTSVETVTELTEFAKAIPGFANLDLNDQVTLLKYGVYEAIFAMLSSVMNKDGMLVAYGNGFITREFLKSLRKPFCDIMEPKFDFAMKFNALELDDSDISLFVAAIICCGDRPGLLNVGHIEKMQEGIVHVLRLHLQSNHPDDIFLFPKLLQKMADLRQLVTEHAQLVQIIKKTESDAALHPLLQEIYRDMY
Experiment: Agonist activity at PPARalpha (unknown origin)
readout kind: pEC50
Answers are plain numbers, as −log10 of the molar value.

**Q:** Find the recorded pEC50 belonging to Cc1ccc(C)c(OCCCC(C)(C)C(=O)O)c1 [GEMFIBROZIL] and report it.
**A:** 4.82
